// read-out pIC50, gathered for 15-hydroxyprostaglandin dehydrogenase [NAD(+)] (Homo sapiens, UniProt P15428) from published studies
Molecular target: 15-hydroxyprostaglandin dehydrogenase [NAD(+)] (Homo sapiens, UniProt P15428)
Sequence (P15428 whole entry): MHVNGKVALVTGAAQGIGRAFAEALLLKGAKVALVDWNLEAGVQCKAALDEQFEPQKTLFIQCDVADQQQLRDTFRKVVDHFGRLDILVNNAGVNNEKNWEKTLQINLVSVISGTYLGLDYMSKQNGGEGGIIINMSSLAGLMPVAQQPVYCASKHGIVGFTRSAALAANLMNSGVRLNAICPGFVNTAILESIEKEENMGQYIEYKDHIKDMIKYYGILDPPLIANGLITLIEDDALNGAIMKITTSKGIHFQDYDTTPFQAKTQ
pIC50 is a log-scale quantity: -log10 of the concentration expressed in molar.

A selection of reference data follows.
{"columns": ["molecule", "target under test", "pIC50"],
 "data": [
  ["Cc1cc(-c2nnc3n2CCCCCC3)c(C)n1-c1ccccc1", "15-hydroxyprostaglandin dehydrogenase [NAD(+)] (Homo sapiens, UniProt P15428)", 6.62],
  ["O=C1N=C(O)S/C1=C\\c1ccc(OCCc2cccs2)cc1", "15-hydroxyprostaglandin dehydrogenase [NAD(+)] (Homo sapiens, UniProt P15428)", 7.51],
  ["Cc1cc(-c2nnc3n2CCCCC3)c(C)n1-c1ccccc1", "15-hydroxyprostaglandin dehydrogenase [NAD(+)] (Homo sapiens, UniProt P15428)", 7.27],
  ["O=C1NC(=O)/C(=C/c2ccc(OCc3ccc([N+](=O)[O-])cc3)cc2Cl)S1", "15-hydroxyprostaglandin dehydrogenase [NAD(+)] (Homo sapiens, UniProt P15428)", 5.34],
  ["O=C1NC(=O)/C(=C/c2ccc(OCCC3CCCCO3)cc2)S1 (stereo unspecified)", "15-hydroxyprostaglandin dehydrogenase [NAD(+)] (Homo sapiens, UniProt P15428)", 6.12],
  ["CC(C)OCCOc1ccc(/C=C2\\SC(=O)NC2=O)c(Cl)c1", "15-hydroxyprostaglandin dehydrogenase [NAD(+)] (Homo sapiens, UniProt P15428)", 5.98],
  ["CC(C)OCCOc1ccc(/C=C2\\SC(O)=NC2=O)cc1", "15-hydroxyprostaglandin dehydrogenase [NAD(+)] (Homo sapiens, UniProt P15428)", 5.90],
  ["O=C1NC(=O)/C(=C/c2ccc(OC3CCCCC3)c(Cl)c2)S1", "15-hydroxyprostaglandin dehydrogenase [NAD(+)] (Homo sapiens, UniProt P15428)", 7.33],
  ["O=C1N=C(O)S/C1=C\\c1ccc(OCCCC2CCCCC2)c(Cl)c1", "15-hydroxyprostaglandin dehydrogenase [NAD(+)] (Homo sapiens, UniProt P15428)", 8.00],
  ["O=C1NC(=O)/C(=C/c2ccc(OCCOC3CCCCC3)c(Cl)c2)S1", "15-hydroxyprostaglandin dehydrogenase [NAD(+)] (Homo sapiens, UniProt P15428)", 7.70]
]}

Turning to the following molecule.
Returns the measured pIC50 for the input molecule. Input: Cc1cc(-c2nnc3n2CCC3)c(C)n1-c1ccccc1
5.52
